targetEntity: T1, Grp (glutamine receptor protein) (Sulfolobus tokodaii strain 7, UniProt F9VNT4 1-150)
T1 sequence: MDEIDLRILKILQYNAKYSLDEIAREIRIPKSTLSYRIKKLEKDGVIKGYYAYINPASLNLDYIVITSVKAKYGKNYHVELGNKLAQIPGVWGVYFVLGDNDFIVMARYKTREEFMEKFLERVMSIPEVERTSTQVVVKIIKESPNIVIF
procedureDetails: filter binding
metricName: Kd (nM)

>  <binder>
18-bp grp promoter fragment (dsDNA) DNA 1: ATATTTTTGTTTATAATA DNA 2: TATTATAAACAAAAATAT

>  <readoutNumber>
188

$$$$

The origin of these recorded values is paper PMC2504300.
